Reported values of Fold change in RNA expression between the ON state and the OFF state for individual entries
System: Renilla luciferase RNA
procedure_text: Barcoded aptazyme variant library screen: un-cleaved Renilla luciferase RNA by barcode read counts, HEK293-T cells
Type: cell-based
details: un-cleaved Renilla luciferase RNA, HEK293-T cells cultured with 1 mM theophylline (ON) over without theophylline (OFF); barcode read counts, triplicate
test_readout: Fold change in RNA expression between the ON state and the OFF state (fold)

molecule	quantitative_readout
RA079 (nucleic acid, expressed or natural sequence) DNA: GCGCGTCCTGGATTCGCGGAAACGCGTACATCCAGCGAGAATACCAGCATCGTCTTGATGCCCTTGGAAGTCTCGCTGACGAGTCCCAAATAGGACGAAACGCGC	1.8
RA123 (nucleic acid, expressed or natural sequence) DNA: GCGCGTCCTGGATTCGCGGAAACGCGTCGGAATACCAGCATCGTCTTGATGCCCTTGGAAGTCCGACATCCAGCTGACGAGTCCCAAATAGGACGAAACGCGC	1.5
RA177 (nucleic acid, expressed or natural sequence) DNA: GCGCGTCCTGGATTCGCGGAAACGCGTACATCCAGCTGACGAGTCCCAAATAGGACGAAACGCAGTGATACCAGCATCGTCTTGATGCCCTTGGCAGCACTGC	1.3
RA276 (nucleic acid, expressed or natural sequence) DNA: GCGCGTCCTGGATTCGCGGAAACGCGTACATCCAGCTGACGAAGAATACCAGCATCGTCTTGATGCCCTTGGAAGTCTGTCCCAAATAGGACGAAACGCGC	1.0
RA260 (nucleic acid, expressed or natural sequence) DNA: GCGCGTCCTGGATTCGCGGAAACGCCGGAATACCAGCATCGTCTTGATGCCCTTGGAAGTCCGGCGTACATCCAGCTGACGAGTCCCAAATAGGACGAAACGCGC	1.1
RA193 (nucleic acid, expressed or natural sequence) DNA: CCGGAATACCAGCATCGTCTTGATGCCCTTGGAAGTCCGGGCGCGTCCTGGATTCGCGGAAACGCGTACATCCAGCTGACGAGTCCCAAATAGGACGAAACGCGC	1.2
RA004: exemplary aptazyme of the T3H48 aptazyme variant library (nucleic acid, expressed or natural sequence, exemplary aptazyme of the T3H48 aptazyme variant library) DNA: GCGCGTCCTGGATTCGCGGAAACGCGTACATCCAGCTGACGAGTCCCAAATAGGCCGGAATACCAGCATCGTCTTGATGCCCTTGGAAGTCCGGACGAAACGCGC	5.3
RA113 (nucleic acid, expressed or natural sequence) DNA: GCGCGTCCTGGATTCGCGGAAACGCGTACATCCAGCTGACGAGTCCCAAATAGGACGAAACGCGC	1.5
